- target-or-system: CXCR4 (Homo sapiens, UniProt P61073)
- Sequence (P61073 whole entry): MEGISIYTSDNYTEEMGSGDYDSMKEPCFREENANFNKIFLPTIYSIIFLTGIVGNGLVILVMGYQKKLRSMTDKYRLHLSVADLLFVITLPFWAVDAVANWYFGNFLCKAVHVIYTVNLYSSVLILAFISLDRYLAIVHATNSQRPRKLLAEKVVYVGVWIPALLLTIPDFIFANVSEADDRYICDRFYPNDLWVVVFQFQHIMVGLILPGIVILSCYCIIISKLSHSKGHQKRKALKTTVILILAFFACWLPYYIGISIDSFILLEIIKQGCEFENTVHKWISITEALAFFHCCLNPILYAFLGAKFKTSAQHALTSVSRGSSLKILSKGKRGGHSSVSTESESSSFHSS
- assay-name: β-arrestin recruitment, 384-well, Tango CXCR4-bla U2OS cells, normalized to SDF-1α
- Format: cell-based
- Design: host or cells: U2OS
- test-parameters: normalized to SDF-1; read-out: TANGO β-arrestin EC50
Recorded measurements of EC50, one per entry

The examples below pair each entry with its known result.
>>> recorded_result("COc1ccc(-c2nnc3n2N=C(c2ccccc2)CS3)cc1")
"> 80 µM"
>>> recorded_result("COc1ccccc1-c1nnc2n1N=C(c1ccc(-c3ccccc3)cc1)CS2")
"5 to 50 µM"
>>> recorded_result("COc1cc(-c2nnc3n2N=C(c2ccc(Br)cc2)CS3)cc(OC)c1OC")
"< 5 µM"
>>> recorded_result("COc1ccc(OC)c(-c2nnc3n2N=C(c2ccc(OC)c(OC)c2)CS3)c1")
"< 5 µM"
>>> recorded_result("CCOc1ccccc1-c1nnc2n1N=C(c1ccc(OC(F)(F)F)cc1)CS2")
"< 5 µM"
>>> recorded_result("COc1ccccc1-c1nnc2n1N=C(c1ccccc1)CS2")
"> 80 µM"
>>> recorded_result("COc1ccccc1-c1nnc2n1N=C(c1ccc(N3CCOCC3)cc1)CS2 [Entry 25]")
"5 to 50 µM"
>>> recorded_result("CCOc1ccccc1-c1nnc2n1N=C(c1ccc(N)cc1)CS2")
"> 10 µM"

Now examine the next entry.
Query :: So what does the record say about EC50 for CCOc1ccccc1-c1nnc2n1N=C(c1ccc(N3CCCC3)cc1)CS2 [Entry 15] ?
Result :: < 5 µM

* * *

- target-or-system: CXCR4 (Homo sapiens)
- assay-name: primary 1536 w β-arrestin recruitment assay (FRET, β-lactamase reporter) in U2OS cells overexpressing CXCR4
- Format: cell-based
- Parameters: host or cells: U2OS
- test-parameters: U2OS; read-out: CXCR4 b-arrestin Emax (%)
readout-kind: Emax (%)

>>> recorded_result("Cc1cccc(C)c1NS(=O)(=O)c1ccc(-c2cnc(C3CC3)o2)cc1")
45
>>> recorded_result("CCOc1ccccc1NS(=O)(=O)c1ccc(-c2cnc(C3CC3)o2)cc1")
46
>>> recorded_result("CCOc1ccc(NS(=O)(=O)c2ccc(-c3cnc(C4CC4)o3)cc2)cc1")
38
>>> recorded_result("COc1ccc(F)cc1NS(=O)(=O)c1ccc(-c2cnc(C3CC3)o2)cc1")
42
>>> recorded_result("CCc1ccccc1NS(=O)(=O)c1ccc(-c2cnc(C3CC3)o2)cc1")
38
>>> recorded_result("Cc1cc(C)cc(NS(=O)(=O)c2ccc(-c3cnc(C4CC4)o3)cc2)c1")
39
>>> recorded_result("Cc1cccc(NS(=O)(=O)c2ccc(-c3cnc(C4CC4)o3)cc2)c1C")
40
>>> recorded_result("Cc1ccc(C)c(NS(=O)(=O)c2ccc(-c3cnc(C4CC4)o3)cc2)c1")
42
>>> recorded_result("Cc1ccc(NS(=O)(=O)c2ccc(-c3cnc(C4CC4)o3)cc2)c(C)c1")
38

* * *

- target-or-system: UniProtKB P61073
- assay-name: primary 1536 w β-arrestin recruitment assay (FRET, β-lactamase reporter) in U2OS cells overexpressing CXCR4
- Format: cell-based
- Set-up: host or cells: U2OS
- test-parameters: 1536 w screening platform
- Experimental: In an effort to identify CXCR4 activators from the NIH Molecular Library Small Molecule Repository (MLSMR), a primary screening assay was developed to measure β-arrestin recruitment to the activated G-protein coupled receptor by Florescence Resonance Energy Transfer (FRET) in U2OS cells overexpressing the CXCR4 receptor engineered with a β-lactamase (bla) reporter system (Invitrogen cat #K1779). CXCR4-bla cells plated in 1536 w were stimulated in the presence of 10 uM compound concentration. […]
pEC50: −log10 of the molar value.
readout-kind: pEC50

>>> recorded_result("CCOc1ccccc1NS(=O)(=O)c1ccc(-c2cnc(C3CC3)o2)cc1")
6.00
>>> recorded_result("COc1ccc(OC)c(NS(=O)(=O)c2ccc(-c3cnc(C4CC4)o3)cc2)c1")
5.96

* * *

- target-or-system: CXCR4 (Homo sapiens, UniProt P61073)
- assay-name: β-arrestin recruitment, 384-well, Tango CXCR4-bla U2OS cells, normalized to SDF-1α
- Format: cell-based
- Parameters: host or cells: U2OS
- test-parameters: U2OS; normalized to SDF-1; read-out: TANGO β-arrestin Emax (%)
readout-kind: Emax

Please review the entries below; each comes with its answer.
>>> recorded_result("COc1ccc(OC)c(-c2nnc3n2N=C(c2ccc(N4CCC4)cc2)CS3)c1 [Entry 80]")
"< 35%"
>>> recorded_result("COc1ccccc1-c1nnc2n1N=C(c1ccc(N3CCOCC3)cc1)CS2 [Entry 25]")
"> 70%"
>>> recorded_result("COc1ccc(C2=Nn3c(nnc3-c3ccccc3)SC2)cc1 [Entry 51]")
"35 to 70%"

Query :: Suppose we examine the compound COc1ccc(C2=Nn3c(nnc3-c3ccccc3OC)SC2)c(OC)c1 [Entry 54] ; what Emax value has been reported?
Result :: 35 to 70%

Query :: Which Emax value belongs to CCOC(=O)CCNc1ccc(C2=Nn3c(nnc3-c3ccccc3OCC)SC2)cc1 [Entry 41] ?
Result :: 35 to 70%

Query :: So what does the record say about Emax for CCOc1ccccc1-c1nnc2n1N=C(c1ccc(OC)cc1)CS2 [Entry 3] ?
Result :: > 70%

Query :: What value of measured Emax is listed for COc1ccccc1-c1nnc2n1N=C(c1ccc(N(C)C)cc1)CS2 [Entry 13] ?
Result :: > 70%

Query :: Emax lookup needed for CCOc1ccccc1-c1nnc2n1N=C(c1ccc(NCC3CC3)cc1)CS2 [Entry 48] , thanks.
Result :: < 35%

Query :: Reported Emax for CCOc1ccccc1-c1nnc2n1N=C(c1ccc(NC(=O)c3ccccc3)cc1)CS2 [Entry 34] : what is it?
Result :: 35 to 70%

Query :: Bench note: what Emax did COc1ccccc1-c1nnc2n1N=C(c1ccc(C)cc1)CS2 [Entry 17] show?
Result :: 35 to 70%

Query :: Look at this compound and give its reported Emax. C=CCOc1ccc(C2=Nn3c(nnc3-c3ccccc3OCC)SC2)cc1 [Entry 6]
Result :: > 70%

Query :: // Emax lookup, key: CCOc1ccccc1-c1nnc2n1N=C(c1ccc(N3CCCC3)cc1)CS2 [Entry 14]
Result :: > 70%

* * *

The entries below come with measured Emax values attached.
- target-or-system: CXCR4 (Homo sapiens, UniProt P61073)
- assay-name: β-arrestin recruitment, 384-well, Tango CXCR4-bla U2OS cells, normalized to SDF-1α
- Assay type: cell-based
- Design: host or cells: U2OS
- test-parameters: U2OS; normalized to SDF-1; read-out: TANGO β-arrestin Emax (%)

Known results for compounds:
>>> recorded_result("COc1ccc(C2=Nn3c(nnc3-c3cccc(OC)c3)SC2)cc1")
"35 to 70%"
>>> recorded_result("COc1ccccc1-c1nnc2n1N=C(c1ccc(SC)cc1)CS2")
"> 70%"

Query :: // Emax lookup, key: CCOc1ccccc1-c1nnc2n1N=C(c1ccc(NC3CCC3)cc1)CS2
Result :: > 70%

Query :: Sample CCc1ccc(C2=Nn3c(nnc3-c3ccccc3OC)SC2)cc1 — what was its Emax?
Result :: 35 to 70%

Query :: Reported Emax for COc1ccc(C2=Nn3c(nnc3-c3ccccc3OC)SC2)cc1 : what is it?
Result :: 35 to 70%

* * *

# Emax annotations
- target-or-system: CXCR4 (Homo sapiens)
- assay-name: β-arrestin recruitment, 384-well, Tango CXCR4-bla U2OS cells, normalized to SDF-1α
- Format: cell-based
- Design: host or cells: U2OS
- test-parameters: U2OS; normalized to SDF-1; read-out: TANGO β-arrestin Emax (%)

>>> recorded_result("COc1ccccc1-c1nnc2n1N=C(c1ccc(-c3ccccc3)cc1)CS2")
"> 70%"
>>> recorded_result("CCOc1ccccc1-c1nnc2n1N=C(c1ccc(OC(F)F)cc1)CS2")
"35 to 70%"

Query :: What value of measured Emax is listed for CCOc1ccccc1-c1nnc2n1N=C(c1ccc(N3CCCC3=O)cc1)CS2 ?
Result :: < 35%

* * *

- target-or-system: CXCR4 (Homo sapiens, UniProt P61073)
- assay-name: β-arrestin recruitment, 384-well, Tango CXCR4-bla U2OS cells, normalized to SDF-1α
- Assay type: cell-based
- Design: host or cells: U2OS
- test-parameters: normalized to SDF-1; read-out: TANGO β-arrestin EC50
- Procedure: […] Results are expressed as mean±SD for 3 to 5 independent experiments. Statistically significant differences in gene expression between two groups were assessed by Student's T-test, ANOVA with an appropriate post hoc test was be used for multiple comparisons. […] All concentration response curves were analyzed to determine EC50 and Emax using the following equation: […]
readout-kind: EC50

Below: 2 compounds and their reported EC50.
>>> recorded_result("CCOC(=O)CCNc1ccc(C2=Nn3c(nnc3-c3ccccc3OCC)SC2)cc1")
"< 5 µM"
>>> recorded_result("CCOc1ccccc1-c1nnc2n1N=C(c1ccc(NC3CCC3)cc1)CS2")
"< 5 µM"

Query :: Any idea what its EC50 is? The compound is COc1ccc(C2=Nn3c(nnc3-c3ccccc3)SC2)cc1OC
Result :: > 80 µM

Query :: Using the record for COc1ccccc1-c1nnc2n1N=C(c1ccc(C)cc1)CS2 , report its EC50.
Result :: < 5 µM

Query :: Name the recorded EC50 for COc1ccccc1-c1nnc2n1N=C(c1ccc(SC)cc1)CS2 .
Result :: < 5 µM
